Target: Neurogenic locus notch homolog protein 3 (Homo sapiens) (UniProt Q9UM47)
Sequence (Q9UM47 whole entry, looked up): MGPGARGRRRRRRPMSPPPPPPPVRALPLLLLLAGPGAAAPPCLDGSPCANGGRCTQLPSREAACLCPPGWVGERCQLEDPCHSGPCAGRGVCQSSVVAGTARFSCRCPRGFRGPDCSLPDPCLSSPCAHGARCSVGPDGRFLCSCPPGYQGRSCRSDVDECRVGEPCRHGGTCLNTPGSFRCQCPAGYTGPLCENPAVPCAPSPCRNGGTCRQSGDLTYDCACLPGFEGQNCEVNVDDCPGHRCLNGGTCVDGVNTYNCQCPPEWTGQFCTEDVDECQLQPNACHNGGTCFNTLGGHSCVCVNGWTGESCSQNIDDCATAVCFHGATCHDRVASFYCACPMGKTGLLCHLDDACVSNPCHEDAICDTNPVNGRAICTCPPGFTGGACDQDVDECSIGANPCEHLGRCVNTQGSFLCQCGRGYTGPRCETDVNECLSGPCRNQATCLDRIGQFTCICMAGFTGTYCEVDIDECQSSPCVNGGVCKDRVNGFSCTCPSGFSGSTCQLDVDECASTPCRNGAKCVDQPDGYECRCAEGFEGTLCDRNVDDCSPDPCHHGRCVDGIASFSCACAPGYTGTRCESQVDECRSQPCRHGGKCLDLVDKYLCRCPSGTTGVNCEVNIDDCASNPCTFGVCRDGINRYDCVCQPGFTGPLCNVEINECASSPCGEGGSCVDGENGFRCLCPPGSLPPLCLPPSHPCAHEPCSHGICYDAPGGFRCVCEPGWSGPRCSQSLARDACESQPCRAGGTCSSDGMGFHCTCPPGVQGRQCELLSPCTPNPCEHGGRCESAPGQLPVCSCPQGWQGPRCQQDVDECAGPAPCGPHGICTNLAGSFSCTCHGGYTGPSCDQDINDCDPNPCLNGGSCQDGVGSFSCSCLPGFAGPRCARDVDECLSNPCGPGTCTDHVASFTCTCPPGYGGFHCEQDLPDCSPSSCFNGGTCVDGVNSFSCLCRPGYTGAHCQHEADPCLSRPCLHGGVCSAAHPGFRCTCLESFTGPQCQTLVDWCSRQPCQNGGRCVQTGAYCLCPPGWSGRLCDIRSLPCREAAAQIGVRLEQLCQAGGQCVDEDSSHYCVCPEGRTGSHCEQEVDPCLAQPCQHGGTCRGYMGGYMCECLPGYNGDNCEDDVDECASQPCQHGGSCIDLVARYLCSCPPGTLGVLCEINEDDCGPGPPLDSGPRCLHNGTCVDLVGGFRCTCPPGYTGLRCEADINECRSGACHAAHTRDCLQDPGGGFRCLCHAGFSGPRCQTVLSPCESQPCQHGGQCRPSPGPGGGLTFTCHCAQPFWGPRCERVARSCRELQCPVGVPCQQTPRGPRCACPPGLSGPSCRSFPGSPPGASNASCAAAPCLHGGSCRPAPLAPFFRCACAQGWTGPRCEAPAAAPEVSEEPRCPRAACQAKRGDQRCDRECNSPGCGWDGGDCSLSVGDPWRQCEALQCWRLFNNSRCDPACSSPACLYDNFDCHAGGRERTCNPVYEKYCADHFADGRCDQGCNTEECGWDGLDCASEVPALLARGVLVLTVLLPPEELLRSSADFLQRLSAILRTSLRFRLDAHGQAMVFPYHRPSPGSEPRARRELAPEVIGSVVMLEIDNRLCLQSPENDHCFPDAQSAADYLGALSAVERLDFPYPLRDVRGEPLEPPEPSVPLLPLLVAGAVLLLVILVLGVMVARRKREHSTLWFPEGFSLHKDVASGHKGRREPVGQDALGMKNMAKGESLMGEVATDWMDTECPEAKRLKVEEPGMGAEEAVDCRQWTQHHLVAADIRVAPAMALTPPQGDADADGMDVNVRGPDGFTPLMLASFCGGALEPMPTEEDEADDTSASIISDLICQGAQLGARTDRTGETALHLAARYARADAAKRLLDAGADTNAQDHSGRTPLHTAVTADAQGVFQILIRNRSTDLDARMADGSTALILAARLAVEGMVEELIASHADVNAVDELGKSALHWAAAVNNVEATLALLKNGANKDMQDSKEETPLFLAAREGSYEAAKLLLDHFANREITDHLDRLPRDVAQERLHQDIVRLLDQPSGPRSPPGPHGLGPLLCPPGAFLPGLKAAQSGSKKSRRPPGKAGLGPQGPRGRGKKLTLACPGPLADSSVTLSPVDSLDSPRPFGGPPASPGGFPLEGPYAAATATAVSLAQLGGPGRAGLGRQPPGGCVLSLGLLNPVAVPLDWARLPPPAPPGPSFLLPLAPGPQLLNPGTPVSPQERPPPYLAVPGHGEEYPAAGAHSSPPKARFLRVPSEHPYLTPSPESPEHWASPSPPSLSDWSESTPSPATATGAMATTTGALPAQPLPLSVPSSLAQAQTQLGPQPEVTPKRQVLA
Assay: small molecules binding NOTCH3 protein – biochemical, 635/667 nm fluorescence, primary screen (AID 1096)
Conditions: small-molecule microarray, 635 nm fluorescence, higher = more signal
Documented composite z-score across a set of molecules
Reply briefly: the number, and no unit.

// known answers, use as guide
Problem: Specify the recorded composite z-score for CC(C)C(O)C1C=CC2C(=O)N(c3ccccc3)C(=O)C2N1Nc1ccccc1 (stereo not drawn) , system: Neurogenic locus notch homolog protein 3 (Homo sapiens) (UniProt Q9UM47).
Result: 1.07

Problem: Specify the recorded composite z-score for `CC(C)[Si](C#C[Si](C(C)C)(C(C)C)C(C)C)(O[C@H](c1ccccc1)c1cn(Cc2ccccc2)nn1)C(C)C` , system: Neurogenic locus notch homolog protein 3 (Homo sapiens) (UniProt Q9UM47).
Result: 0.361

Problem: Specify the recorded composite z-score for CS(=O)(=O)CCOC(=O)C1=CC(CCCO)=CC(c2ccc(CN3CCCC3)cc2)N(Cc2sc3ccccc3c2Cl)C=C1C(=O)OCCS(C)(=O)=O (stereo not drawn) , system: Neurogenic locus notch homolog protein 3 (Homo sapiens) (UniProt Q9UM47).
Result: 1.04

Further cases:
Problem: Specify the recorded composite z-score for `COc1ccc([Si](C)(C)[C@@H]2[C@@H](CC(=O)N(CCO)Cc3ccccc3)O[C@]3(C(=O)N(Cc4cccc(N5CCCCC5=O)c4)c4ccccc43)[C@H]2C)cc1` , system: Neurogenic locus notch homolog protein 3 (Homo sapiens) (UniProt Q9UM47).
Result: 0.948

Problem: Specify the recorded composite z-score for `COC(=O)c1c(CC[C@@H](CO)NC(=O)N[C@@H](C)Cn2cc(-c3ccccn3)nn2)oc(C(C)=O)c1C(=O)OC` , system: Neurogenic locus notch homolog protein 3 (Homo sapiens) (UniProt Q9UM47).
Result: 0.794

Problem: Specify the recorded composite z-score for `CC(C)(C)OC(=O)COc1cccc(C(=O)CCN2CCOCC2)c1` , system: Neurogenic locus notch homolog protein 3 (Homo sapiens) (UniProt Q9UM47).
Result: -0.529

Problem: Specify the recorded composite z-score for COC(=O)C1=CC(CCCO)=CC(c2cccs2)N(C)C=C1C(=O)OC (stereo not drawn) , system: Neurogenic locus notch homolog protein 3 (Homo sapiens) (UniProt Q9UM47).
Result: 0.275

Problem: Specify the recorded composite z-score for CN(C)c1ccc(C(O)C2C=CC3C(=O)NC(=O)C3N2Nc2ccccn2)cc1 (stereo not drawn) , system: Neurogenic locus notch homolog protein 3 (Homo sapiens) (UniProt Q9UM47).
Result: 1

====

Target: Streptavidin (Streptomyces avidinii)
Assay: compounds binding control protein streptavidin – biophysical, small-molecule microarray, 635/667 nm fluorescence, artefact control for SMM compound annotation, primary screen (AID 1147);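 further: signal reflects streptavidin binding to arrayed compounds as a control protein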
Settings: higher = more signal
Documented composite z-score across a set of compounds

// known answers, use as guide
Problem: Look up and report measured composite z-score for this entry: `COC(=O)[C@@]1(Cc2ccccc2)[C@H]2c3cc(C(=O)N(C)C)n(Cc4ccc(C)o4)c3C[C@H]2CN1C(=O)c1ccccc1`
Result: 2.31

Problem: Look up and report measured composite z-score for this entry: `COc1ccc([Si](C)(C)[C@@H]2[C@@H](CCO)O[C@]3(C(=O)N(Cc4ccccc4)c4ccc(N5C(=O)c6cccc7cccc5c67)cc43)[C@H]2C)cc1`
Result: 0.305

Problem: Look up and report measured composite z-score for this entry: `CN(C)CCCCCCNC(=O)[C@@H]1C[C@@H]2C(=O)N3CCC[C@H]3C(=O)N2[C@@H]1c1cccc(OCCO)c1`
Result: 0.656

Now for a further compound.
Problem: Look up and report measured composite z-score for this entry: `NCCCCCNC(=O)[C@H]1C[C@H]2C(=O)N3CCC[C@H]3C(=O)N2[C@H]1c1cccc(OCCO)c1`
Result: 0.812

====

Target: Calmodulin-1 (Homo sapiens) (UniProt P0DP23)
Test: small molecules binding Ca-loaded calmodulin-1 – biochemical, small-molecule microarray, Cy5-labelled CALM1, plus calcium, artefact control for SMM control-protein annotation, profiling panel (AID 1112);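 further: score merges spot fluorescence with signal to noise from triplicate slides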
Conditions: Cy5-CALM1 binding fluorescence, higher = more signal
Documented composite z-score across a set of molecules
Reply briefly: the number, and no unit.

Problem: Look up and report measured composite z-score for this entry: `C=CC[C@@]1(C(=O)NCCCOC)N=C(c2ccc(OCCCO)cc2)O[C@@H]1c1ccccc1N=[N+]=[N-]`
Result: -0.105

Problem: Look up and report measured composite z-score for this entry: CC(C)c1ccc(NN2C(C(O)c3ccc(F)cc3)C=CC3C(=O)N(c4ccccc4)C(=O)C32)cc1 (configuration not stated)
Result: -0.0298

Problem: Look up and report measured composite z-score for this entry: CCCCCC1=C2CNC(C)(C(=O)OC)C=C2C(C)C1=O (configuration not stated)
Result: 0.897

Problem: Look up and report measured composite z-score for this entry: `COC(=O)C(CC#Cc1ccc2c(c1)[C@]1(C(=O)N2)[C@H](c2ccc(O)cc2)N2[C@H](c3ccccc3)[C@H](c3ccccc3)OC(=O)[C@H]2[C@@H]1C(=O)NC[C@H](O)c1ccccc1)C(=O)OC`
Result: -0.102

Problem: Look up and report measured composite z-score for this entry: CC1CC/C=C\[C@H]2OC34C=CCN(Cc5ccccc5)C(=O)[C@H]3N(C(CO)C(C)C)C(=O)[C@@H]4C2C(=O)O1 (some centres not stated)
Result: -0.528

Problem: Look up and report measured composite z-score for this entry: `COC(=O)c1c(CC[C@@H](CO)NC(=O)N2CCC[C@H]2Cn2cc(C3(O)CCCCC3)nn2)oc(C(C)=O)c1C(=O)OC`
Result: -0.712

Problem: Look up and report measured composite z-score for this entry: `CC(C)N1C(=O)C[C@@](C(=O)NC2CC2)(c2ccc([N+](=O)[O-])cc2)[C@H]1c1ccc(CO)cc1`
Result: -0.606

====

Assay: budding yeast growth changes without added modifier – OD600, strain BY4716, 24 h, basal condition, primary screen (AID 1173)
Conditions: S. cerevisiae BY4716 growth, OD600, 24 h; higher = more signal, called active from +8 up or from −8 down
Documented z-score across a set of compounds
Reply briefly: the number, and no unit.

Problem: Look up and report measured z-score for this entry: COc1cc(C(O)C2C=CC3C(=O)N(C)C(=O)C3N2Nc2ccccc2)cc(OC)c1OC (centres undefined)
Result: -2.86

Problem: Look up and report measured z-score for this entry: `C=CCOC(=O)[C@@H]1[C@H]2C(=O)O[C@H](c3ccccc3)[C@H](c3ccccc3)N2[C@H](c2ccc(OCCOC(=O)[C@@H]3C[C@@H]4C(=O)N[C@@H](CCCC[N+](C)(C)C)C(=O)N4[C@@H]3c3ccc(O)cc3)cc2)[C@@]12C(=O)Nc1ccc(I)cc12`
Result: -0.398

Problem: Look up and report measured z-score for this entry: `COc1cccc(C)c1NC(=O)O[C@H]1[C@H](OC(=O)Nc2ccc3c(c2)OCO3)[C@@H](OC(=O)Nc2ccc3c(c2)OCO3)[C@@H](OC)O[C@@H]1CO`
Result: 1.21

Problem: Look up and report measured z-score for this entry: `COc1ccc(CCNC(=O)[C@@]2(Cc3ccccc3I)c3ccccc3C(=O)N(C3CCCCC3)[C@H]2c2ccc(CO)cc2)cc1`
Result: -0.447

====

Assay: inhibition of PAO1 biofilm formation – strain PAO1, LB-PBS medium, absorbance 600 nm, primary screen (AID 1176); further: test concentration not given here
Conditions: P. aeruginosa PAO1 growth/biofilm, A600, 12 h; higher = more signal
Output: class label from z-score. Mapping: LOW = under -0.06, MEDIUM = from -0.06 up to 0.7, HIGH = 0.7 and over

The following compounds have reported results that may help.
Problem: Which z-score band matches `C=CCN1C(=O)[C@]2(CCC(=O)OC(C)(C)C)N=C(c3ccc(OCCCO)cc3)O[C@@H]2c2ccccc21` ?
Result: MEDIUM

Problem: Which z-score band matches `COc1ccc([Si](C)(C)[C@@H]2[C@@H](CC(=O)N3Cc4ccccc4C[C@H]3CO)O[C@]3(C(=O)N(Cc4ccc(N5C(=O)c6cccc7cccc5c67)cc4)c4ccccc43)[C@H]2C)cc1` ?
Result: HIGH

Further cases:
Problem: Which z-score band matches `COC(=O)[C@@]1(Cc2ccc(OC)cc2)[C@H]2c3cc(C(=O)N4CCCC4)n(CCO)c3C[C@H]2CN1C(=O)c1ccccc1` ?
Result: MEDIUM

Problem: Which z-score band matches `COCCOC(=O)N1C(=O)[C@@]2(c3cc(C#CCCO)ccc31)[C@H](c1ccc(OCCO)cc1)N1[C@H](c3ccccc3)[C@H](c3ccccc3)OC(=O)[C@H]1[C@@H]2C(=O)Nc1nc2ccccc2s1` ?
Result: HIGH

Problem: Which z-score band matches COc1cc2c(cc1O)C(c1cccs1)N(Cc1cc3c(cc1Br)OCO3)CC2 (stereo not given) ?
Result: LOW

====

Experiment: blockers of DNA damage checkpoint Chk1 activation – imaging, HeLa, hydroxyurea, phospho-Chk1 antibody, percent positive cells, primary screen (AID 1186)
Settings: hydroxyurea-induced phospho-Chk1 immunofluorescence imaging, higher = more signal
Experimental endpoint: z-score
Reply briefly: the number, and no unit.

Problem: Look up and report measured z-score for this entry: CC(C)(C)OC(=O)CC[C@@]1(C(=O)NCC(O)CO)N=C(c2ccc(OCCCO)cc2)O[C@@H]1c1ccccc1CN=[N+]=[N-] (some centres not stated)
Result: 0.436

Problem: Look up and report measured z-score for this entry: CCCCCCCCCC(O)C1C=CC2C(=O)N(c3ccccc3)C(=O)C2N1Nc1cc(OC)c(OC)c(OC)c1 (configuration not stated)
Result: 0.297
